- experimental.system: HLA-C0302 (Homo sapiens, UniProt P10321, A176E/A330V/A97T/C25G/C350S/D114A/D33Y/E197K/L127V/L171W/L218V/M285V/M309V/M331V/P208H/Q277E/Q291P/R243W/R45H/S123Y/S297R/S48A/T118I/T187L/T329A/T363A/V319A)
- protocol.summary: Competitive peptide binding assay, CIR-C0302
- protocol.conditions: HMy2.CIR-C0302 cells, reference Cy5-[…], class from inhibition at 5 and 15 μM, flow cytometry MFI; read-out: Binding affinity with HLA-C0302
pIC50: −log10 of the molar value. Peptide text beside a SMILES is read from it.
parameter: pIC50

[Q] I'd like to know its pIC50. The compound in question is CC(C)C[C@H](NC(=O)[C@H](C)NC(=O)[C@H](C)NC(=O)CNC(=O)[C@H](C)NC(=O)CNC(=O)[C@H](Cc1ccccc1)NC(=O)[C@@H](NC(=O)[C@@H](N)Cc1c[nH]c2ccccc12)[C@@H](C)O)C(=O)O [Epitope M33, WTFGAGAAL] (H-WTFGAGAAL-OH; N-terminus and C-terminus assumed)
[A] 4.82 to 5.30

[Q] I'd like to know its pIC50. The compound in question is CC[C@H](C)[C@H](N)C(=O)N[C@H](C(=O)N[C@@H](CC(N)=O)C(=O)N[C@@H](CO)C(=O)N[C@H](C(=O)N[C@@H](CC(C)C)C(=O)N[C@@H](CC(C)C)C(=O)N[C@@H](Cc1ccccc1)C(=O)N[C@@H](CC(C)C)C(=O)O)C(C)C)C(C)C [Epitope M7] (H-IVNSVLLFL-OH; N-terminus and C-terminus assumed)
[A] < 4.82

[Q] I'd like to know its pIC50. The compound in question is CC(C)[C@H](NC(=O)CNC(=O)[C@H](CCCNC(=N)N)NC(=O)[C@@H](NC(=O)[C@H](Cc1ccccc1)NC(=O)[C@H](CO)NC(=O)[C@@H](N)CC(N)=O)[C@@H](C)O)C(=O)N[C@@H](Cc1ccc(O)cc1)C(=O)N[C@@H](Cc1ccc(O)cc1)C(=O)O [Epitope M129] (H-NSFTRGVYY-OH; N-terminus and C-terminus assumed)
[A] < 4.82

[Q] I'd like to know its pIC50. The compound in question is CC(C)[C@H](NC(=O)[C@H](CC(N)=O)NC(=O)[C@H](Cc1ccc(O)cc1)NC(=O)[C@H](C)NC(=O)[C@@H](N)CCCCN)C(=O)N[C@H](C(=O)N[C@@H](CCC(N)=O)C(=O)N[C@@H](C)C(=O)N[C@@H](Cc1ccccc1)C(=O)O)[C@@H](C)O [Epitope M11] (H-KAYNVTQAF-OH)
[A] < 4.82

[Q] I'd like to know its pIC50. The compound in question is CC[C@H](C)[C@H](NC(=O)[C@@H]1CCCN1C(=O)[C@@H](NC(=O)[C@H](Cc1c[nH]cn1)NC(=O)[C@H](CCCCN)NC(=O)[C@H](CO)NC(=O)[C@H](Cc1ccc(O)cc1)NC(=O)[C@@H](NC(=O)[C@@H](N)CCCCN)[C@@H](C)CC)[C@@H](C)O)C(=O)O [Epitope M34] (H-KIYSKHTPI-OH; N-terminus and C-terminus assumed)
[A] < 4.82

[Q] I'd like to know its pIC50. The compound in question is CSCC[C@H](NC(=O)[C@H](CO)NC(=O)[C@H](Cc1ccccc1)NC(=O)[C@H](Cc1c[nH]cn1)NC(=O)[C@H](CCCCN)NC(=O)[C@H](CCCNC(=N)N)NC(=O)[C@H](CC(C)C)NC(=O)[C@H](Cc1ccc(O)cc1)NC(=O)[C@H](C)NC(=O)[C@@H](N)Cc1ccc(O)cc1)C(=O)O [Epitope M26] (H-YAYLRKHFSM-OH; N-terminus and C-terminus assumed)
[A] 4.82 to 5.30

[Q] I'd like to know its pIC50. The compound in question is CC[C@H](C)[C@H](NC(=O)[C@@H](NC(=O)[C@@H](N)CO)[C@@H](C)CC)C(=O)N[C@@H](C)C(=O)N[C@@H](Cc1ccc(O)cc1)C(=O)N[C@H](C(=O)N[C@@H](CCSC)C(=O)N[C@@H](CO)C(=O)N[C@@H](CC(C)C)C(=O)O)[C@@H](C)O [Epitope M86] (H-SIIAYTMSL-OH; N-terminus and C-terminus assumed)
[A] < 4.82

[Q] I'd like to know its pIC50. The compound in question is C[C@@H](O)[C@H](NC(=O)[C@H](CCC(N)=O)NC(=O)[C@H](CC(=O)O)NC(=O)[C@H](Cc1c[nH]c2ccccc12)NC(=O)[C@H](Cc1ccc(O)cc1)NC(=O)[C@H](CCCCN)NC(=O)[C@H](Cc1ccccc1)NC(=O)[C@@H](N)Cc1ccc(O)cc1)C(=O)N[C@@H](Cc1ccc(O)cc1)C(=O)O [Epitope M122] (H-YFKYWDQTY-OH; N-terminus and C-terminus assumed)
[A] < 4.82

[Q] I'd like to know its pIC50. The compound in question is CC(C)C[C@H](NC(=O)[C@H](CC(C)C)NC(=O)[C@H](Cc1ccccc1)NC(=O)[C@@H](NC(=O)[C@H](CCCNC(=N)N)NC(=O)[C@@H]1CCCN1C(=O)[C@H](CCC(N)=O)NC(=O)[C@H](CC(C)C)NC(=O)[C@@H](N)Cc1ccc(O)cc1)[C@@H](C)O)C(=O)O [Epitope M35] (H-YLQPRTFLL-OH; N-terminus and C-terminus assumed)
[A] < 4.82

[Q] I'd like to know its pIC50. The compound in question is CC[C@H](C)[C@H](NC(=O)[C@H](Cc1ccc(O)cc1)NC(=O)[C@H](CC(C)C)NC(=O)[C@H](Cc1ccccc1)NC(=O)[C@H](CCCNC(=N)N)NC(=O)[C@H](CC(N)=O)NC(=O)[C@H](CCCNC(=N)N)NC(=O)[C@H](CC(N)=O)NC(=O)[C@H](C)NC(=O)[C@@H](N)Cc1ccc(O)cc1)C(=O)O [Epitope M73] (H-YANRNRFLYI-OH; N-terminus and C-terminus assumed)
[A] 4.82 to 5.30

[Q] I'd like to know its pIC50. The compound in question is CSCC[C@H](NC(=O)[C@H](CO)NC(=O)[C@H](CCC(N)=O)NC(=O)[C@H](CCC(N)=O)NC(=O)[C@H](CC(C)C)NC(=O)[C@H](CCC(N)=O)NC(=O)[C@H](CCCCN)NC(=O)[C@H](CO)NC(=O)[C@@H](N)Cc1ccccc1)C(=O)O [Epitope M14] (H-FSKQLQQSM-OH; N-terminus and C-terminus assumed)
[A] > 5.30
